All values here come from patent US20260258050A1.

# system name: Human IL-17A (Homo sapiens, UniProt Q16552)
# Sequence (Q16552 20-155 limits assumed): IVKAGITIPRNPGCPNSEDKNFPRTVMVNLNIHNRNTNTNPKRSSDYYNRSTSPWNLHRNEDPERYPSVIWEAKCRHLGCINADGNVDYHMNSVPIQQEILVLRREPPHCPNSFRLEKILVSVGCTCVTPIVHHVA
# run description: IL-17A enzyme-linked immunosorbent assay (competitive ELISA, IL-17A/IL-17Ra receptor-ligand binding)
# Parameters: purchased Sino Biological Inc. 12047-H07B
# setup conditions: human IL-17A coated plate, human IL-17Ra, read-out: IC50, inhibitory activity of compounds on human IL-17A
pIC50: −log10 of the molar value.
Answer each item with its documented pIC50.

// lookup pIC50 for Cc1[nH]nc2c1-c1cc(F)c(NC(=O)[C@@H](NC(=O)c3ccnn3CCN3CCOCC3)C(C3CC3)C3CC3)cc1COCC2 [compound 97] 6.82 to 7.30

Likewise for COCCN1Cc2cc(NC(=O)[C@@H](NC(=O)c3nonc3C)C(C3CC3)C3CC3)c(F)cc2-c2c(n[nH]c2C)CC1=O [compound 141] ? ≥ 7.30

Likewise for Cc1[nH]nc2c1-c1cc(F)c(NC(=O)[C@@H](NC(=O)c3ccnn3C(C)C)C(C3CC3)C3CC3)cc1CN(C1CCC1)C(=O)C2 [compound 170] ? ≥ 7.30

Likewise for Cc1[nH]nc2c1-c1cnc(NC(=O)[C@@H](NC(=O)c3conc3C3CC3)C(C3CC3)C3CC3)cc1COCC2 [compound 241] ? ≥ 7.30
